# protocol-notes: acute toxicity (LD50), intraperitoneal administration
# condition-set: mouse, in vivo, ip, male mice, 24 hours after administration
# Description: The volume of injected solution was 0.01 ml/g of body weight. In the following Table I acute toxicity of dextrorotatory ergot alkaloids in comparison with levorotatory ergot alkaloids 24 hours after the intraperitoneal administration is given.
Readings of LD50 at 24 h for the listed compounds

>  <compound>
CC(C)[C@H]1C(=O)N2CCC[C@H]2[C@]2(O)O[C@](NC(=O)[C@H]3C=C4c5cccc6[nH]cc(c56)C[C@H]4N(C)C3)(C(C)C)C(=O)N12 [ergocorninine methanesulfonate, Ergocorninine methanesulfonate]

>  <relational-operator>
>

>  <LD50 at 24 h (mg/kg)>
520

$$$$
>  <compound>
CC(C)C[C@H]1C(=O)N2CCC[C@H]2[C@]2(O)O[C@](NC(=O)[C@@H]3C=C4c5cccc6[nH]cc(c56)C[C@H]4N(C)C3)(C(C)C)C(=O)N12 [ergocryptine methanesulfonate, reference compound]

>  <relational-operator>
=

>  <LD50 at 24 h (mg/kg)>
188

$$$$
